B1: EPB41L3 (parent)
chain: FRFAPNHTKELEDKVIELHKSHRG

Variants of: B1
testDescription: protein stability index of a GFP-peptide fusion (GPS, HEK-293T) (PSI 1-6); higher = more stable;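 further: lentivirally expressed fusions sorted by FACS into six bins by GFP to DsRed ratio, PSI derived from sequencing read proportions per bin multiplied by bin number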
runParameters: c terminus: a fixed tail appended
Lab note: compare protein stability index against 2. Equal or greater, write criterion met. Smaller, write criterion not met.

Known results for variants:
Query block: Please check the record E12F and state if its protein stability index is at or above 2.
Result block: criterion met

Query block: Please check the record H7K and state if its protein stability index is at or above 2.
Result block: criterion not met

Query block: Please check the record V15N and state if its protein stability index is at or above 2.
Result block: criterion met

Query block: Please check the record K14N and state if its protein stability index is at or above 2.
Result block: criterion met

Query block: Please check the record F1K and state if its protein stability index is at or above 2.
Result block: criterion met

---
Query block: Please check the record V15L and state if its protein stability index is at or above 2.
Result block: criterion met

Query block: Please check the record D13M and state if its protein stability index is at or above 2.
Result block: criterion not met

Query block: Please check the record F1V and state if its protein stability index is at or above 2.
Result block: criterion met

Query block: Please check the record S21F and state if its protein stability index is at or above 2.
Result block: criterion not met

Query block: Please check the record K9P and state if its protein stability index is at or above 2.
Result block: criterion met
